# Tgt: T1, human ferroportin (SLC40A1) fused with GFP, stably expressed in HEK293 cells (human, UniProt Q9NP59 1-571)
# T1 sequence (looked up): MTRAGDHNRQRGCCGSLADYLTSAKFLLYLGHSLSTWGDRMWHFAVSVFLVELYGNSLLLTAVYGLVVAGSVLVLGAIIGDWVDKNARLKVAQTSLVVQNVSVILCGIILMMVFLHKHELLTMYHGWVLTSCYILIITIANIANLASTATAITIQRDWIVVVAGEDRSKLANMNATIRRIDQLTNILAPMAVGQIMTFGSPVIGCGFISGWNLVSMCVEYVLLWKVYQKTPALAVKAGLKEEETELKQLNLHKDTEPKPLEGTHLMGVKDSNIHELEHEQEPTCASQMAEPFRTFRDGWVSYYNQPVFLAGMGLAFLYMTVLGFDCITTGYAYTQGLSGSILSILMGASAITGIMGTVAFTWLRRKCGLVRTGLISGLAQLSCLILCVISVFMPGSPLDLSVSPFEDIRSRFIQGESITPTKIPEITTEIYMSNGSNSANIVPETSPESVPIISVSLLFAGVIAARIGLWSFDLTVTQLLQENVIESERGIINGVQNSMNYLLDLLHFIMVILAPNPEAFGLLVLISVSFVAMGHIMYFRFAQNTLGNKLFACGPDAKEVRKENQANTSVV
# Assay Comment: cell-based or functional assay
Positions of bridges follow the written chain, without caps; N, C: chain ends. Non-standard residues stand in square brackets, D forms with d. Groups on a side chain read outwards from the residue. *: point of attachment. PEG12 = NCCOCCOCCOCCOCCOCCOCCOCCOCCOCCOCCOCCOCCC(=O)O; Palmitoyl = CCCCCCCCCCCCCCCC(=O)*; Isovaleryl = CC(C)CC(=O)*
Experimental Readout: FPN IC50 (nM)

I = Isovaleryl-DTHFPCI[dK]F[dK]([PEG12-Palmitoyl])[dK]C-NH2 (disulfide 6-12 (inferred)) [Compd ID 107]
II = DTHXPCIKFKKX (Isovaleric acid-DTH-[Dpa]-PCI-[(D)Lys]-F-[Lys(Peg11-Palm)]-[(D)Lys]-Pen-NH2) [Compd ID 132]
III = Isovaleryl-DTHFPCI[dK]FK([PEG12-Palmitoyl])[dR]C-NH2 (disulfide 6-12 (inferred)) [Compd ID 81]
Sort the binders on FPN IC50; start with the lowest figure. Would you mind listing the labels in the order asked for? II, III, I
(II: 4 nM, III: 9 nM, I: 60 nM)
